target: cGAS (Homo sapiens); assay: ISD70-driven IP-10 (and IFN-β) production in THP-1 cells, ELISA; format: cell-based; parameters: endogenous in cells; host or cells: THP-1 (undifferentiated); conditions: THP-1; 100 nM ASO overnight, then ISD70 2.5 μg/ml 7-8 h; percentage of ISD70 only
Sequence (Q8N884 whole entry): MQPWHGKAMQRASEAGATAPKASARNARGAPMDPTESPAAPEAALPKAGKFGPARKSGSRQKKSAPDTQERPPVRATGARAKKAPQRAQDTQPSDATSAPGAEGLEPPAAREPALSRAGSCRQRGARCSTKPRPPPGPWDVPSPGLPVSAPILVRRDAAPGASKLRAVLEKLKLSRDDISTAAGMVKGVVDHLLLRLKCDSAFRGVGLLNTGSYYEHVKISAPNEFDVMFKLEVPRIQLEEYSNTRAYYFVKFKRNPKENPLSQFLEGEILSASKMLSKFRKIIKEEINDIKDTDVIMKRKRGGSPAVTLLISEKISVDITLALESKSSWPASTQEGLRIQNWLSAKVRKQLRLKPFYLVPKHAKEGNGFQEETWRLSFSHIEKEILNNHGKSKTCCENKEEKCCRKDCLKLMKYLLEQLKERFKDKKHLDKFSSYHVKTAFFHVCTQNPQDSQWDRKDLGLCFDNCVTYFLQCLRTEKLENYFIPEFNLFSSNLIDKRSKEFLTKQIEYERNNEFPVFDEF
In the oligonucleotide strings, read from the 5' end, every base follows the letter of its sugar. An asterisk marks phosphorothioate; unmarked linkages are phosphodiester. Other units and linkages are bracketed, terminal groups are in braces. A string of capitals states the bases alone. d = 2'-deoxy (DNA); m = 2'-O-methyl
Items are presented alongside their recorded cGAS-100 nM: averaged IP-10 levels relative to ISD70.
result-type: cGAS-100 nM: averaged IP-10 levels relative to ISD70 (%)

* mC*mU*mU*mC*mU*C*T*C*T*G*G*T*C*C*C*mA*mU*mC*mC*mC (mC*mU*mU*mC*mU*dC*dT*dC*dT*dG*dG*dT*dC*dC*dC*mA*mU*mC*mC*mC) [[LINC-PINT]112] | 82.64
* mG*mG*mG*mU*mC*T*C*C*T*C*C*A*C*A*C*mC*mC*mU*mU*mC (GGGUCTCCTCCACACCCUUC; antisense; sugars from the 5' end m5 d10 m5, all phosphorothioate, methylation of C not given here) [[LINC-PINT]128] | 37.83
* mG*mU*mG*mU*mU*T*T*T*A*A*T*T*T*T*G*mU*mA*mG*mA*mG (mG*mU*mG*mU*mU*dT*dT*dT*dA*dA*dT*dT*dT*dT*dG*mU*mA*mG*mA*mG) [[CDKN2B-AS1]611] | 66.24
* mA*mA*mU*mU*mU*A*A*A*G*C*A*T*G*A*A*mU*mA*mU*mU*mA (mA*mA*mU*mU*mU*dA*dA*dA*dG*dC*dA*dT*dG*dA*dA*mU*mA*mU*mU*mA) [[CDKN2B-AS1]645] | 67.63
* mA*mA*mA*mG*mA*T*T*A*T*C*T*T*C*T*T*mU*mU*mA*mA*mU (mA*mA*mA*mG*mA*dT*dT*dA*dT*dC*dT*dT*dC*dT*dT*mU*mU*mA*mA*mU) [[CDKN2B-AS1]2132] | 74.59

====

Target: human TLR9 (Homo sapiens, UniProt Q9NR96)
Construct: HA; host or cells: 293XL-hTLR9-HA (HEK293)
Sequence (Q9NR96 26-1032): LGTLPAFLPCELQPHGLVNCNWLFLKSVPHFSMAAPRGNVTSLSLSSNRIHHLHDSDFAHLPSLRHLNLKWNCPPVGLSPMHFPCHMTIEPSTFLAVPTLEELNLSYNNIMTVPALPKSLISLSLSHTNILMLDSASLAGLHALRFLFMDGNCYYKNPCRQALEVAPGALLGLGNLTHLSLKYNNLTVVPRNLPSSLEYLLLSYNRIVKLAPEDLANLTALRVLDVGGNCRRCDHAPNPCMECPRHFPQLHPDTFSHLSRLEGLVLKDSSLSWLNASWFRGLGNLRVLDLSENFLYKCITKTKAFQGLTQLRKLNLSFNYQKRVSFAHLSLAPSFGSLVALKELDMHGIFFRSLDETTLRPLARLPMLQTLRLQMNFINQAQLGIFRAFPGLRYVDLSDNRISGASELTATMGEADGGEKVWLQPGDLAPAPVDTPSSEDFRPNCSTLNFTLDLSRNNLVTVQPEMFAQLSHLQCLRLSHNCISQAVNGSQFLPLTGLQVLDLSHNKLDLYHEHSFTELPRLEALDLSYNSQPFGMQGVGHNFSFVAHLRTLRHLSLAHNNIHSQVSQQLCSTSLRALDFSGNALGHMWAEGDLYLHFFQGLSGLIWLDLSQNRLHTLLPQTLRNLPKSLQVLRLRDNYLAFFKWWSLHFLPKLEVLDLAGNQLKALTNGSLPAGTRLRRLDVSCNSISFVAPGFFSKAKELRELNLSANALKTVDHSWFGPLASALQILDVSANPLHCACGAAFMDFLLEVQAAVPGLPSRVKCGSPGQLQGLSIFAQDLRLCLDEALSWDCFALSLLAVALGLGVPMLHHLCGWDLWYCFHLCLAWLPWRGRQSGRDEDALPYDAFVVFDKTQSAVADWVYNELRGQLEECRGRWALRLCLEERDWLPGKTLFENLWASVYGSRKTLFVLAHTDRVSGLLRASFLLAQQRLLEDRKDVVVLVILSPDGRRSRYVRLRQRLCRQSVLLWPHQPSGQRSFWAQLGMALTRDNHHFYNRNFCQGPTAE
Assay: HEK-TLR9 NF-κB-luciferase reporter, ODN2006 stimulation
Type: cell-based
Settings: MOE-modified ASO at 500 nM; averaged NF-κB-Luciferase relative to ODN2006 condition
Below: a set of entries, each annotated with reported TLR9 500 nM.
result-type: TLR9 500 nM

* GGAGATTTCAGAGCAGCTTC (antisense; 2'-MOE modified, pattern not given here) [EGFR-4885 MOE] | 0.381
* TGTCTTCATCGGCCCTGCCT (antisense; 2'-MOE modified, pattern not given here) [CAMSAP1-2112 MOE] | 0.480
* ACAGTGTTGAGATACTCGGG (antisense; 2'-MOE modified, pattern not given here) [EGFR-3652 MOE] | 0.194
* TTTGCACACTTCGTACCCAA (antisense; 2'-MOE modified, pattern not given here) [CAMSAP1-4916 MOE] | 0.514
* GCGTATTATAGCCGATTAAC (antisense; 2'-MOE modified, pattern not given here) [NC1 2′MOE] | 0.064
* TGTGATGGCCTCCCATCTCC (antisense; 2'-MOE modified, pattern not given here) [HPRT-332 MOE] | 0.782

====

A collection of sequences and their measured TLR8 500 nM
target: TLR8 (Homo sapiens); experiment: HEK-TLR8 NF-κB-luciferase reporter, R848 or Motolimod stimulation (potentiation or inhibition); format: cell-based; set-up: expressed in transfected cells; host or cells: 293XLhTLR8 (HEK293); settings: MOE-modified ASO at 500 nM; averaged NF-κB-Luciferase relative to R848 condition (fold increase)
result-type: TLR8 500 nM

* CGGCATCCACCACGTCGTCC (antisense; 2'-MOE modified, pattern not given here) [EGFR-3267 MOE] | 0.903
* CAGATAGCACCTTCAGCACT (antisense; 2'-MOE modified, pattern not given here) [CTNN2B-1294 MOE] | 2.356
* GGAGGTCTTGGCTTCGTGGA (antisense; 2'-MOE modified, pattern not given here) [MB21D1-524 MOE] | 5.288
* TTGCCATGCTGGCTCGGACT (antisense; 2'-MOE modified, pattern not given here) [CAMSAP1-2584 MOE] | 0.572
* ACAACCCCTTTCACCATCCC (antisense; 2'-MOE modified, pattern not given here) [MB21D1-689 MOE] | 14.808
* AATCCGCCCAAAGGGAACTG (antisense; 2'-MOE modified, pattern not given here) [HPRT-1027 MOE] | 4.659
* GGTGTCCTTGCACGTGGCTT (antisense; 2'-MOE modified, pattern not given here) [EGFR-1016 MOE] | 1.019
* TGGCAGGCTCAGTGATGTCT (antisense; 2'-MOE modified, pattern not given here) [CTNN2B-1642 MOE] | 0.973
* CACCCACTTGGCAGACCATC (antisense; 2'-MOE modified, pattern not given here) [CTNN2B-1576 MOE] | 1.502
* CGGAGGTCTTGGCTTCGTGG (antisense; 2'-MOE modified, pattern not given here) [MB21D1-525 MOE] | 3.257
* CTGTGATCTTGACATGCTGC (antisense; 2'-MOE modified, pattern not given here) [EGFR-2790 MOE] | 1.387
* GTCCTTGCACGTGGCTTCGT (antisense; 2'-MOE modified, pattern not given here) [EGFR-1013 MOE] | 1.593
* ACCCACTTGGCAGACCATCA (antisense; 2'-MOE modified, pattern not given here) [CTNN2B-1575 MOE] | 3.985
* GTGTCTTCATCGGCCCTGCC (antisense; 2'-MOE modified, pattern not given here) [CAMSAP1-2113 MOE] | 1.093
* TGGGTTACGGCTCAGTATGG (antisense; 2'-MOE modified, pattern not given here) [CAMSAP1-4295 MOE] | 1.538
* AGGTCTTGGCTTCGTGGAGC (antisense; 2'-MOE modified, pattern not given here) [MB21D1-522 MOE] | 5.064

====

Target: TLR8 (Homo sapiens)
Sequence (Q9NR97 27-1041): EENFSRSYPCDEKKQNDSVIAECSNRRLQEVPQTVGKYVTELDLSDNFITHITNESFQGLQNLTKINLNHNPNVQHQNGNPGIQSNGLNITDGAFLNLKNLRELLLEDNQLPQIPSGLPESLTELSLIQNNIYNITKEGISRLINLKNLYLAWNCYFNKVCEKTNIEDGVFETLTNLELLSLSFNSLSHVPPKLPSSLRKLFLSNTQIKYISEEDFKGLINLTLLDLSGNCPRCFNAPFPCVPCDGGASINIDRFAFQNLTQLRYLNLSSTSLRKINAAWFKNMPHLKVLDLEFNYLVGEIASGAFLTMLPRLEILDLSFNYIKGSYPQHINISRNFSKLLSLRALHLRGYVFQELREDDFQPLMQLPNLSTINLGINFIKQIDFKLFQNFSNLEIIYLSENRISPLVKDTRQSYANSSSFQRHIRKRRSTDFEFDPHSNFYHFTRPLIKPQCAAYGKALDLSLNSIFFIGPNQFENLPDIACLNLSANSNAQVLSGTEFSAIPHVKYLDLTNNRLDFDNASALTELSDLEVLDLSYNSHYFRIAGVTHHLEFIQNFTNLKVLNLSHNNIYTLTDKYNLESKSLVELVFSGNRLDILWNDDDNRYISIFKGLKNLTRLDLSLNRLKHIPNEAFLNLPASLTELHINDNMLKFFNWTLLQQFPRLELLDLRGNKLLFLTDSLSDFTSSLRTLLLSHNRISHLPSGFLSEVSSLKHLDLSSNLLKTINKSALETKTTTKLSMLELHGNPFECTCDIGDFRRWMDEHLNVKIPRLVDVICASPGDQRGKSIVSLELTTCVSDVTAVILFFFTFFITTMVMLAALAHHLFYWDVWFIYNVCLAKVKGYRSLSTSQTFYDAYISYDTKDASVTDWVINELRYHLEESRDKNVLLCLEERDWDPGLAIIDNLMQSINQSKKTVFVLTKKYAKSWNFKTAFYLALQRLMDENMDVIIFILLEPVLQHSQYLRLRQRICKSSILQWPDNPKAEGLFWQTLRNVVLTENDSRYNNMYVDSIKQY
Assay: HEK-TLR8 NF-κB-luciferase reporter, R848 or Motolimod stimulation (potentiation or inhibition)
Assay type: cell-based
Design: expressed in transfected cells; host or cells: 293XLhTLR8 (HEK293)
Conditions: ASO 100 nM; relative to R848 only
Measured TLR8 100 nM (averaged NF-κB-Luciferase level relative to R848 condition, fold increase), listed per entry for reference.
result-type: TLR8 100 nM (averaged NF-κB-Luciferase level relative to R848 condition, fold increase)

- CAACACTTCGTGGGGT (antisense; LNA-modified, pattern not given here) [HPRT LNA-667 V1]: 0.591
- TGTCTGGAAGCTTCCT (antisense; LNA-modified, pattern not given here) [CTNN2B-808 LNA V1]: 0.600
- AATCCAACAAAGTCTG (antisense; LNA-modified, pattern not given here) [HPRT LNA-692 KL]: 0.591
